- target_under_test: T1, canine CD20 on cells (HEK293, MDCK II, CLBL-1 or native B cells) (canine, UniProt Q3C2E2 1-297)
- T1 chain: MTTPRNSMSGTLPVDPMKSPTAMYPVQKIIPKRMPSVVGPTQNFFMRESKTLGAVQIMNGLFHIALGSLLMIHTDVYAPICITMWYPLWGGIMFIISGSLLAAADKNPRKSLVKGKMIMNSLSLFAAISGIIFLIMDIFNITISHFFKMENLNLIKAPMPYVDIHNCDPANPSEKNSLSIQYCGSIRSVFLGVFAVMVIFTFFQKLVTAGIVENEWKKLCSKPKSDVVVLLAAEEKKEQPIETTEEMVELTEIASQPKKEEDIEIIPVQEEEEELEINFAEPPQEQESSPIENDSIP
- measurement_notes: cell-based or functional assay
Reported EC50 (nM), bispecific killing (FIG. 13E) values are given for each entry in this list.
Reply with just the number (in nM).

INSERT INTO results (binder, scale_unit, numeric_result) VALUES
  ('PMX172VH/PMX239VH/PMX172VL (bispecific antibody, V domains shown) VH 1: EVQLVESGGDLVKPGGSLRLSCVASGFTFSSYHMSWVRQAPGKGLQWVAYSNSGGSRTSYADAVKGRFTISRDNAKNTLYLQMNSLRAEDTAVYYCASEGGGGRYGYKDYGMDYWGHGTSLFVSS VH 2: EVQLVESGGDLVKPGGSLRLSCVASGFTFSRYYMNWVRQAPGKGLQWVAFITSGGSSTSYGDAVKGRFTISRDNAKNTLYLQMNSLRAEDTAVYYCTSFDYWGQGTLVTVSS VL: SYVLTQLPSKNVTLKQPAHITCGGDNIGSKSVHWYQQKLGQAPVLIIYYDSSRPTGIPERFSGANSGNTATLTISGALAEDEADYYCQVWDSSAKAWVFGEGTQLTVL', 'nM', 2.59);

Now consider the entry below.
Endpoint output: EC50 (nM), bispecific killing (FIG. 13E) of PMX172VH/PMX272VH/PMX172VL (bispecific antibody, V domains shown) VH 1: EVQLVESGGDLVKPGGSLRLSCVASGFTFSSYHMSWVRQAPGKGLQWVAYSNSGGSRTSYADAVKGRFTISRDNAKNTLYLQMNSLRAEDTAVYYCASEGGGGRYGYKDYGMDYWGHGTSLFVSS VH 2: EVQLVESGGDLVKPGGSLRLSCVASGFTFSRYYMNWVRQAPGKGLQWVAYIDSDGSSTSYADAVKGRFTISRDNAKNTLYLQMNSLRADDTAVYYCTSFDYWGQGTLVTVSS VL: SYVLTQLPSKNVTLKQPAHITCGGDNIGSKSVHWYQQKLGQAPVLIIYYDSSRPTGIPERFSGANSGNTATLTISGALAEDEADYYCQVWDSSAKAWVFGEGTQLTVL . Value?
5.87
